# maps each entry to its GI50
tested on: OVCAR-8; assay: NCI tumour cell line growth inhibition, 48 h
The source made the active and inactive calls. No stated cut-off is given here; in the data, active = GI50 up to about 1.1 µM and inactive = higher.

Worked set:
Cc1c2cnccc2c(C)c2c1c1ccccc1n2CC1CO1 (centres undefined)
0.443 µM (active)
O=C1C(Br)=CC2([N+](=O)[O-])CCNC3=C(C4=NCCc5c[nH]c(c54)C3=O)C2=C1Br (centres undefined)
0.365 µM (active)
COC(=O)c1ccccc1/C=C1\Cc2ccc(C)c(C)c2C1=O
> 100 µM (inactive)

Let's switch to this molecule now.
Lab note: record GI50 of CC(=O)OCC1OC(n2c(-c3ccccc3)c(C(C)=O)c(-c3cccc4ccccc34)c(C#N)c2=S)C(OC(C)=O)C(OC(C)=O)C1OC(C)=O (centres undefined) tested on OVCAR-8.
> 100 µM (inactive)
